Target: T1, Rev1 G193R (1-746) (Saccharomyces cerevisiae (expression …, UniProt P12689 1-746, G193R))
T1 sequence: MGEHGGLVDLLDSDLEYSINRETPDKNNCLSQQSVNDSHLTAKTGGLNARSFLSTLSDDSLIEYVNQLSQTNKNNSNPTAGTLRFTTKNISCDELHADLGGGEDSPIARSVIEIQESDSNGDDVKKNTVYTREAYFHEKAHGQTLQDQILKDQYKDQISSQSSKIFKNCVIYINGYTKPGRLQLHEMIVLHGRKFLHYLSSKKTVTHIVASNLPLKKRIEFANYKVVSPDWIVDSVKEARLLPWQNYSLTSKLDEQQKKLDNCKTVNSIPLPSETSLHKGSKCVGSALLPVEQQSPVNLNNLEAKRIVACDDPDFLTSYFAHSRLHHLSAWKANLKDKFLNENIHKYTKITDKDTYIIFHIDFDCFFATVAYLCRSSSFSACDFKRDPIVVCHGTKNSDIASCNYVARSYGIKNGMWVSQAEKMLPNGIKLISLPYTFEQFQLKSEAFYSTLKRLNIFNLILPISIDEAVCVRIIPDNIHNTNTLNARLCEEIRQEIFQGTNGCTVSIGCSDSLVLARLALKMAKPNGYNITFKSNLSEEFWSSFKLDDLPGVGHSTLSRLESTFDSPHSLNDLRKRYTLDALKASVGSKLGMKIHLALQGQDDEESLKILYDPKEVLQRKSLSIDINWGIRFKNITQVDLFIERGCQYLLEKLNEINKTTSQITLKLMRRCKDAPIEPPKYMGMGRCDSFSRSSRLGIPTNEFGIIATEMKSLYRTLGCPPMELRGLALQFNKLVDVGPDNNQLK
Assay: pre-steady-state burst amplitude titration
Parameter Measured: Kd (nM)
Enter your answer as a number in nM; do not include the unit.

Return the recorded Kd value; entry: 24/45-mer primer-template (dsDNA) DNA 1: GCCTCGCAGCCGTCCAACCAACTC DNA 2: GGACGGCATTGGATCGACCTGGAGTTGGTTGGACGGCTGCGAGGC 16

Where do the numbers come from? From paper PMC3580236.
